Test: ATG_SREBP_CIS: Attagene CIS-FACTORIAL HepG2 Assay for human Sterol Regulatory Element Binding (SREBP) (AID 2282962)
Conditions: HepG2 Attagene cis-factorial SREBP reporter, mRNA; actives raise or lower the signal
Active and inactive are the calls of the source. Rule for the calls: active = hit-call score of the fitted dose curve at least 0.9, where 1 is the maximum; inactive = score below 0.9.
Respond with a class label; see 1 for active, -1 for inactive

Hi team, can someone confirm the assay call for COC(C)(C)CCCC(C)CC=O (centres undefined) ?
-1

// return assay outcome for CCCC[O][Al]([O]CCCC)[O]CCCC
-1

* * *

Assay: ATG_ISRE_CIS: Attagene CIS-FACTORIAL HepG2 Assay for human Interferon Regulatory Factor 1 (IRF1) binding to an Interferon-Stimulated Response Element (ISRE) (AID 2282948)
Conditions: HepG2 ISRE cis-reporter (Attagene), mRNA transcription readout; actives raise or lower the signal
Calls of active or inactive are those of the source. The calls were made as follows: active = hit-call score of the fitted dose curve at least 0.9, where 1 is the maximum; inactive = score below 0.9.
Give your call using only these classes: true (1) = active, false (0) = inactive

Use the examples below as a reference point.
{"columns": ["MOLECULE", "CATEGORY LABEL"],
 "data": [
  ["O=C(CS)OCCOC(=O)CS", "true (1)"],
  ["C=COCCOCCOC=C", "false (0)"],
  ["Cc1ccc(C)o1", "false (0)"],
  ["C=CCOC(=O)CCCCCC", "false (0)"],
  ["CCCC(C)=O", "false (0)"]
]}

Hello, I am checking results. What call was entered for CC[N+](C)(CC)CC ?
false (0)

Hello, I am checking results. What call was entered for CSCCC=O ?
false (0)

Which outcome was entered for the molecule CC(C)C(OC(=O)c1ccccc1)C(C)(C)COC(=O)c1ccccc1 (configuration not stated) in this test?
false (0)

// return assay outcome for Nc1ccc2cc(S(=O)(=O)O)cc(O)c2c1N=Nc1ccccc1C(F)(F)F
false (0)

Which outcome did this test record for the molecule CCCCCCC(O)CCCCCCCCCCC(=O)O (configuration not stated) ?
false (0)

Entry COc1cccc(OC)c1O : call = ?
false (0)

Recorded test outcome, item CC(=O)c1ccccn1
false (0)

Please state the recorded outcome for this molecule: CCCCOCC
false (0)

Hi team, can someone confirm the assay call for C1CCOC1 ?
false (0)

Recorded test outcome, item C[Si](C)(C)O[Si](C)(C)C
false (0)

Query: recorded result category for CCCCCCCCC=CCCCCCCCC1=NCCN1CCO in this test
true (1)

So what was the verdict on COc1ccccc1N=Nc1c(S(=O)(=O)O)cc2cc(S(=O)(=O)O)cc(NC(C)=O)c2c1O in this test?
false (0)

Check the results log: what was the call for CN(C)c1ccncc1 ?
false (0)

* * *

Assay: ATG_PPRE_CIS: Attagene CIS-FACTORIAL HepG2 Assay for human Peroxisome Proliferator-activated Response Element (PPRE) (AID 2282958)
Conditions: HepG2 PPRE cis-element reporter, Attagene transcription factor profiling; actives raise or lower the signal
Calls of active or inactive are those of the source. The calls were made as follows: active = hit-call score of the fitted dose curve at least 0.9, where 1 is the maximum; inactive = score below 0.9.
The reply should be one of these categories: 1 for active, 0 for inactive

{"columns": ["SMILES TEXT", "CATEGORY LABEL"],
 "data": [
  ["C=CC(=O)OCCC#N", 0]
]}

Check the results log: what was the call for CN(C)C(=S)SC(=S)N(C)C ?
1

Hi, sorry to bother you, what did the test record for Cc1ccc(S(N)(=O)=O)cc1 ?
0

The reported measurements were obtained from PubChem BioAssay (EPA / NIEHS).
